Provide the reported pKd of each item.
# subjectOfTest: T1, human KDR-Fc fusion (R&D Systems #357-KD-050) (human, UniProt P35968 20-764)
# T1 construct: bought
# measurementNotes: Biacore, KDR-Fc on CM5 chip, unlabeled peptide
Bridge positions count the residues as written; N and C are the ends.
// field semantics: pKd = negative decimal log of concentration (mol/L)

Task: Given the binder Ac-AGWIECYHPDGICYHFGTGGGK-NH2 (disulfide 6-13 (inferred); not fully specified) [SEQ ID NO:269] , write its reported pKd.
Output: 6.49

Task: Fill in pKd for record Ac-GDGWACAKWPWGGEICQPSDPGGGK-NH2 (disulfide 6-16 (inferred); not fully specified) [SEQ ID NO:300]
Output: 5.82

Task: Give the reported value of pKd for this record: Ac-AGPKWCEEDWYYCMITGTGGGK-NH2 (cysteine pairing not given here; also: C-terminal Lys fluorescein-labeled for some assays, unlabeled for others) [SEQ ID NO:264]
Output: 7.57

Task: Tell me measured pKd for Ac-AQAFPRFGGDDYWIQQYLRYTDGGK-NH2 (not fully specified) [SEQ ID NO:306] please.
Output: 6.60

Task: Report pKd, nothing else, for this binder: Ac-GDPDTCTMWGDSGRWYCFPADPGGGK-NH2 (disulfide 6-17 (inferred); not fully specified) [SEQ ID NO:301]
Output: 6.59

Task: Tell us which pKd value is on record for Ac-AQDWYYDEILSMADQLRHAFLSGGGK-NH2 (not fully specified) [SEQ ID NO:310]
Output: 7.30

Task: # return recorded pKd for input Ac-AGIDFCKGMAPWLCADMGTGGGK-NH2 (disulfide 6-14 (inferred); not fully specified) [SEQ ID NO:311]
Output: 6.74

Task: Give a short answer stating reported pKd for Ac-GDSRVCWEDSWGGEVCFRYDPGGGK-NH2 (not fully specified; cysteine pairing not given here) [SEQ ID NO:294] .
Output: 6.92

Task: Hello, please tell me recorded pKd for this one: Ac-AQRGDYQEQYWHQQLVEQLKLLGGK-NH2 (not fully specified) [SEQ ID NO:308]
Output: 5.28

Task: Provide only the value of recorded pKd for Ac-GDDHMCRSPDYQDHVFCMYWDPGGGK-NH2 (disulfide 6-17 (inferred); not fully specified) [SEQ ID NO:295]
Output: 6.85

Provenance of the data: patent EP2014310A2
